The measured values listed here are drawn from ChEMBL document CHEMBL4610112.

biological target: Bromodomain-containing protein 4 (Homo sapiens); assay: Displacement of APC-labeled biotinylated-avidin from Euphorium-chelated recombinant human BRD4 bromodomain 1 expressed in Escherichia coli preincubated for 15 mins followed by APC-labeled biotinylated-avidin addition and measured after 1 hr under dark condition by TR-FRET assay
assay metric: pIC50
Scale for pIC50: -log10 of concentration given in mol/L; no unit attached.

Examples with their reported pIC50 follow.
| mol smiles | measured target | pIC50 |
| --- | --- | --- |
| Cn1cc(-c2cc(NS(C)(=O)=O)c3ccn(CC4CC(F)(F)C4)c3c2)c2cc[nH]c(=O)c21 | Bromodomain-containing protein 4 (Homo sapiens) | 6.79 |
| Cn1cc(-c2cc(NS(C)(=O)=O)c3ccn(Cc4ccc(F)cc4)c3c2)c2ccnc(O)c21 | Bromodomain-containing protein 4 (Homo sapiens) | 7.02 |
| CCS(=O)(=O)Nc1cc(-c2cn(C)c3c(=O)[nH]ccc23)cc2c1ccn2Cc1c(C)cccc1C | Bromodomain-containing protein 4 (Homo sapiens) | 6.80 |
| Cc1cc(F)cc(C)c1Cn1ccc2cc(NS(C)(=O)=O)cc(-c3cn(C)c4c(=O)[nH]ccc34)c21 | Bromodomain-containing protein 4 (Homo sapiens) | 5.85 |
| Cc1cc(F)ccc1Cn1ccc2c(NS(C)(=O)=O)cc(-c3cn(C)c4c(=O)[nH]ccc34)cc21 | Bromodomain-containing protein 4 (Homo sapiens) | 6.22 |
| CC(=O)Nc1cc(-c2cn(C)c3c(=O)[nH]ccc23)cc2c1ccn2C(C)(c1ccccn1)c1ccccn1 | Bromodomain-containing protein 4 (Homo sapiens) | 8.08 |
| Cn1cc(-c2cc(NS(C)(=O)=O)c3cnn(Cc4ccc(F)cc4)c3c2)c2cc[nH]c(=O)c21 | Bromodomain-containing protein 4 (Homo sapiens) | 7.05 |
| CCS(=O)(=O)Nc1cc(-c2cn(C)c3c(=O)[nH]ccc23)cc2c1ccn2Cc1ccc(F)cc1 | Bromodomain-containing protein 4 (Homo sapiens) | 7.32 |

Exam item: Give the value of pIC50 reported for the following: CCS(=O)(=O)Nc1cc(-c2cn(C)c3c(=O)[nH]ccc23)cc2c1ccn2C(c1ccccc1)c1ccccc1
Marked response: 7.08

Exam item: In one line, give reported pIC50 of the entry CCC(c1ccccn1)(c1ccccn1)n1ccc2c(NS(=O)(=O)CC)cc(-c3cn(C)c4c(=O)[nH]ccc34)cc21 .
Marked response: 8.03
